# Target Or System: HLA-A*03:01
# Experimental Details: IEDB peptide-MHC binding, purified MHC/direct/fluorescence; filed as Kd, often an IC50 or EC50 that approximates it; bounds were set here for any values at or beyond the usual limits of such assays
# Condition: source organism: Reston ebolavirus
pKd: −log10 of the molar value.
Metric: pKd

INSERT INTO results (monomer_sequence, result) VALUES
  ('GVPPKVVSY', '≤ 4.70');

* * *

# Target Or System: HLA-B*57:01
# Experimental Details: IEDB peptide-MHC binding, purified MHC/direct/fluorescence; filed as Kd, often an IC50 or EC50 that approximates it; bounds were set here for any values at or beyond the usual limits of such assays
# Condition: source organism: Mycobacterium tuberculosis
pKd: −log10 of the molar value.
Metric: pKd

INSERT INTO assay_data (monomer_sequence, target_or_system, metric, result) VALUES
  ('AVFPRYHPR', 'HLA-B*57:01', 'pKd', '≤ 4.70');
